Reference source for all entries: ChEMBL document CHEMBL3988442

Target: Chromo domain-containing protein 1 (Saccharomyces cerevisiae (strain ATCC 204508 / S288c) (Baker's yeast)) (UniProt P32657)
Sequence (P32657 whole entry, the tested form may be a part): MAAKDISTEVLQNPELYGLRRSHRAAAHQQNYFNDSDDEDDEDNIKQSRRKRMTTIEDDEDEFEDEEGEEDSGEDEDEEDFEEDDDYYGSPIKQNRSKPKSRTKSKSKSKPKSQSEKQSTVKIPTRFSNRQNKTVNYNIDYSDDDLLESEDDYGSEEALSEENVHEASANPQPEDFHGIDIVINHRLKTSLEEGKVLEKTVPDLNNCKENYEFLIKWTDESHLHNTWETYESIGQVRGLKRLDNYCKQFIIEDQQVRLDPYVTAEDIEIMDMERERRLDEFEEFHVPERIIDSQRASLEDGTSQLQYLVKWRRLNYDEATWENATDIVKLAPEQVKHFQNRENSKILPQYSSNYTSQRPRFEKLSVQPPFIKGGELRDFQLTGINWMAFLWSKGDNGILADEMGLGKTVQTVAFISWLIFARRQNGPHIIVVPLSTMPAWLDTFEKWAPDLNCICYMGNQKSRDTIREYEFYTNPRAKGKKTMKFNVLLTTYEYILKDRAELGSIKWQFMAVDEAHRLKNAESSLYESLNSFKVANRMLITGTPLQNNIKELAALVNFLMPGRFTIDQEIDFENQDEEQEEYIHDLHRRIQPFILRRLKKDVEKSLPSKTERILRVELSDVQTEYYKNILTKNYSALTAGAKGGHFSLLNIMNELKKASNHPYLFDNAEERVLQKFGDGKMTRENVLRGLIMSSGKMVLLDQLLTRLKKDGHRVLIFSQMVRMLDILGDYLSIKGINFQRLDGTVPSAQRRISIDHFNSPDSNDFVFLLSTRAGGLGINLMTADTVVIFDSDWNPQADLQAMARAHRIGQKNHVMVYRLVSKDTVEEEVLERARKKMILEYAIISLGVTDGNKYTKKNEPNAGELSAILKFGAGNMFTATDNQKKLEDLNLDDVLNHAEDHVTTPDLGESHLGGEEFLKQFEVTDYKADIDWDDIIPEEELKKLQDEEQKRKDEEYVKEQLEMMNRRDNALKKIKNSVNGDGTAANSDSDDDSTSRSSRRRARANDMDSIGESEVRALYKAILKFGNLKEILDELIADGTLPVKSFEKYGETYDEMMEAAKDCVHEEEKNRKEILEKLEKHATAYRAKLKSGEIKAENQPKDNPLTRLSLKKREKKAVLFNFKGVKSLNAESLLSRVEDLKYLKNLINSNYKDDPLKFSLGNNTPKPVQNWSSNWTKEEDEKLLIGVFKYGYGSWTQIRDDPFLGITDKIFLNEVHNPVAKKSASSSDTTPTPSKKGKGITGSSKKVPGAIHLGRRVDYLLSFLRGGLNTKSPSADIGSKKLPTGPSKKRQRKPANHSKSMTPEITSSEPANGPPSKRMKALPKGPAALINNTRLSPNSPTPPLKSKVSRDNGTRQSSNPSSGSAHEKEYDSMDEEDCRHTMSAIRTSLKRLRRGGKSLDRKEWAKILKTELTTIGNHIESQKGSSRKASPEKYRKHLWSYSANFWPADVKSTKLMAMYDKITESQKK
Assay: ScCHD-1 Enzyme Inhibition Assay
Assay type: functional
Parameters: scale not given: in the data most compounds retested in dose-response had high values
Conditions: 30 µM
ASSAY ENDPOINT: Percent Effect (%)
# value in %; strip the unit string

Which Percent Effect is reported for this compound? O=C(CC1CC1)NCc1cc(=O)n2c(n1)CN(Cc1ccoc1)CCC2
-3.77

Dear colleague, I am looking for the recorded Percent Effect of the following compound: N#Cc1cccnc1NCc1cccnc1N1CCC(C(N)=O)CC1
1.32

For the compound O=C(NCc1cc[nH]n1)NC1CCCN(c2ncccn2)C1 (centres undefined) , what Percent Effect is on record?
-5.61

# lookup: Percent Effect of c1cnc(NCc2noc3c2CN(CCN2CCCC2)CC3)nc1
-8.39

Which measured Percent Effect value corresponds to Cc1nnc(Nc2cccc(C3CCN(CCO)CC3)n2)s1 ?
-3.37

Next:
Give the measured Percent Effect of O=C(CSc1nncs1)N1CCN(Cc2ccc(Cl)s2)CC1 .
-13.2
